The measured values listed here are drawn from patent US12371454B2.

target: Kras and SOS1 (biotin-tagged human Kras loaded with GDP, His-tagged human SOS1) (Homo sapiens, UniProt P01116, G12D); construct: made in house; host or cells: E. coli (stated for Kras only); assay: Protein-protein interaction inhibition between Kras and SOS1 (KrasGl2D-SOS PPI) using AlphaScreen; format: binding; settings: AlphaScreen; biotin-tagged human Kras loaded with GDP, His-tagged human SOS1; read-out: KRAS G12D-SOS PPI IC50
Sequence (P01116 1-188 isoform P01116-2 G12D): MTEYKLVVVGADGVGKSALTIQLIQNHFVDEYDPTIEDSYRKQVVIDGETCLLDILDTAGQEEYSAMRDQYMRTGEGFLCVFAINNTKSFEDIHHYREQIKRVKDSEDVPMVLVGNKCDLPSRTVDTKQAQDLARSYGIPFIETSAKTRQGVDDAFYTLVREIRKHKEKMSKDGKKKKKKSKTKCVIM
Starred links: 1 amine or outer side, 2 acyl side, 3 side chain; linkers in the order of their positions; H or OH if unused. Positions of bridges follow the written chain, without caps; N, C: chain ends. Non-standard residues stand in square brackets, D forms with d. Residues, ends and D or L forms follow the SMILES beside them. *: point of attachment. hPhe(3,5-F2-4-CF3) = N[C@@H](CCc1cc(F)c(C(F)(F)F)c(F)c1)C(=O)O; hPhe(3-F,4-CF3) = N[C@@H](CCc1ccc(C(F)(F)F)c(F)c1)C(=O)O; NMePhe(4-CF3) = CN[C@@H](Cc1ccc(C(F)(F)F)cc1)C(=O)O; NMedβ3hAla = C[C@H](CC(=O)[*:2])N(C)[*:1]; NMeGly(cPent) = CN[C@H](C(=O)O)C1CCCC1; Pro(4,4-F2) = O=C(O)[C@@H]1CC(F)(F)CN1; NMeCha = CN[C@@H](CC1CCCCC1)C(=O)O; NMeD = CN[C@@H](CC(=O)O)C(=O)O; NMeL = CN[C@@H](CC(C)C)C(=O)O; Piperidide = C1CCN(*)CC1; Ac5c = NC1(C(=O)O)CCCC1; Sar = CNCC(=O)O
Readout name: pIC50
Give bare numbers, as −log10 of the molar value.

>  <Compound>
CC[C@H](C)[C@@H]1NC(=O)[C@H](CC(C)C)N(C)C(=O)C[C@@H](C)N(C)C(=O)[C@H](C2CCCC2)N(C)C(=O)C2(CCCC2)NC(=O)[C@@H]2CC(F)(F)CN2C(=O)[C@H](CCc2cc(F)c(C(F)(F)F)c(F)c2)NC(=O)CN(C)C(=O)[C@H](Cc2ccc(C(F)(F)F)cc2)N(C)C(=O)CN(C)C(=O)CN(C)C1=O [Compound 269] (cyclo([Ac5c][NMeGly(cPent)][NMedβ3hAla][NMeL]I[Sar][Sar][NMePhe(4-CF3)][Sar][hPhe(3,5-F2-4-CF3)][Pro(4,4-F2)]))

>  <Endpoint value>
8.47

$$$$

Please examine the following record next.
Exercise: Write down pIC50 measured for item CC(C)C[C@H]1C(=O)N[C@@H](C(C)C)C(=O)N(C)CC(=O)N(C)CC(=O)N(C)[C@@H](CC2CCCCC2)C(=O)N(C)CC(=O)N[C@@H](CCc2ccc(C(F)(F)F)c(F)c2)C(=O)N2CCC[C@H]2C(=O)NC2(CCCC2)C(=O)N(C)[C@@H](CC(C)C)C(=O)N(C)[C@H](C(=O)N2CCCCC2)CC(=O)N1C [Compound 1458] ([NMeL]V[Sar][Sar][NMeCha][Sar][hPhe(3-F,4-CF3)]P[Ac5c][NMeL][NMeD]-Piperidide; lactam N-11)
Key: 8.14

----------
target: Kras and SOS1 (biotin-tagged human Kras loaded with GDP, His-tagged human SOS1) (Homo sapiens, UniProt P01116, G12D); construct: made in house; host or cells: E. coli (stated for Kras only); test: Protein-protein interaction inhibition between Kras and SOS1 (KrasGl2D-SOS PPI) using AlphaScreen; type: binding; details: AlphaScreen; biotin-tagged human Kras loaded with GDP, His-tagged human SOS1; read-out: KRAS G12D-SOS PPI IC50
Positions of bridges follow the written chain, without caps; N, C: chain ends. Non-standard residues stand in square brackets, D forms with d. Residues, ends and D or L forms follow the SMILES beside them. *: point of attachment. hPhe(3-Cl-4-CF3) = N[C@@H](CCc1ccc(C(F)(F)F)c(Cl)c1)C(=O)O; NEtPhe(2-Cl) = CCN[C@@H](Cc1ccccc1Cl)C(=O)O; NMeCha = CN[C@@H](CC1CCCCC1)C(=O)O; NMeD = CN[C@@H](CC(=O)O)C(=O)O; NMeV = CN[C@H](C(=O)O)C(C)C; NMeA = CN[C@@H](C)C(=O)O; Pyrrolidide = C1CCN(*)C1; Ac5c = NC1(C(=O)O)CCCC1; Sar = CNCC(=O)O
Readout name: IC50 (nM)
Answers are plain numbers, in nM.

Exercise: Write down IC50 measured for item CC[C@H](C)[C@@H]1NC(=O)[C@H](C)N(C)C(=O)C[C@@H](C(=O)N2CCCC2)N(C)C(=O)[C@H](C(C)C)N(C)C(=O)C2(CCCC2)NC(=O)[C@H](Cc2ccccc2Cl)N(CC)C(=O)[C@H](CCc2ccc(C(F)(F)F)c(Cl)c2)NC(=O)CN(C)C(=O)[C@H](CC2CCCCC2)N(C)C(=O)CN(C)C(=O)CN(C)C1=O [Compound 2162] ([NMeA]I[Sar][Sar][NMeCha][Sar][hPhe(3-Cl-4-CF3)][NEtPhe(2-Cl)][Ac5c][NMeV][NMeD]-Pyrrolidide; lactam N-11)
Key: 200
